molecular target: CB2 receptor (Homo sapiens); test: [3H]CP-55,940 radioligand competition binding, CB2; parameters: host or cells: cell membrane preparations; settings: [3H]CP-55,940 displacement; read-out: Ki (CB2)
Sequence (P34972 whole entry): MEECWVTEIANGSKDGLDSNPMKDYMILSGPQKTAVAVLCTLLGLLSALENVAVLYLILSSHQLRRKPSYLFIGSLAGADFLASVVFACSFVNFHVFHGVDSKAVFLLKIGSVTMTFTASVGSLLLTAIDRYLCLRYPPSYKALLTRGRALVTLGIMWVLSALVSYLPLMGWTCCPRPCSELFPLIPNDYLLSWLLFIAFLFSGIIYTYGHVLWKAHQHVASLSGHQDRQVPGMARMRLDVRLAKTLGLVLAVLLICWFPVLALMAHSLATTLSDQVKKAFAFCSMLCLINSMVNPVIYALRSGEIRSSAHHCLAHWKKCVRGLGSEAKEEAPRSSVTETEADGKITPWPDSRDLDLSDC
Entries and their pKi
A value of pKi is the negative decimal logarithm of a concentration given in moles per litre.

Consider the following illustrative entries.
# Molecule, Result Type, Measured Value
rows = [
    ("CCCCCC(=O)NC(NC(=O)CCCCC)c1ccc(N(CC)CC)cc1", "pKi", 7.60),
    ("O=C(Cc1ccc(Cl)cc1)NC(NC(=O)Cc1ccc(Cl)cc1)c1ccccc1F", "pKi", 4.96),
    ("CCCCC(NC(=O)Cc1ccccc1)NC(=O)Cc1ccccc1", "pKi", 4.44),
]

# input What pKi appears in the records for this compound with CB2 receptor (Homo sapiens)? CCN(CC)c1ccc(C(NC(=O)C(C)C)NC(=O)C(C)C)cc1
# output 5.58

# input Entry CCN(CC)c1ccc(CN(C23CC4CC(CC(C4)C2)C3)S(=O)(=O)c2ccc(OC)cc2)cc1 , system CB2 receptor (Homo sapiens): what pKi was measured?
# output 6.86

# input // lookup pKi | system=CB2 receptor (Homo sapiens) | key= CCN(CC)c1ccc(CN(C(=O)Cc2ccccc2)C23CC4CC(CC(C4)C2)C3)cc1
# output 7.22

# input Request - read-out pKi | tested on CB2 receptor (Homo sapiens) | compound CCCCC(=O)NC(NC(=O)CCCC)c1ccc(N(CC)CC)cc1
# output 6.74

# input Fill in the recorded pKi for this compound, with CB2 receptor (Homo sapiens) as test system: CCN(CC)c1ccc(CN(c2ccc(C)cc2)S(=O)(=O)c2cccc(C)c2)cc1
# output 8.24
